test: Therapeutic index, ratio of IC50 for human H9 cells to EC50 for HIV1 3B
Type: cell-based
recorded-conditions: read-out: TI
value-kind: selectivity ratio
Answers are plain numbers.

Give selectivity ratio for all molecules that follow.
1. Cc1cc(=O)oc2c3c(ccc12)O[C@H](C)[C@@H](OC(=O)[C@]12CC[C@](C)(C(=O)O1)C2(C)C)[C@H]3OC(=O)[C@]12CC[C@](C)(C(=O)O1)C2(C)C
2. Cc1cc(=O)oc2c3c(ccc12)S[C@H](C)[C@H](OC(=O)[C@]12CC[C@](C)(C(=O)O1)C2(C)C)[C@@H]3OC(=O)[C@]12CC[C@](C)(C(=O)O1)C2(C)C
3. Cc1cc(=O)oc2c3c(ccc12)SC[C@H](OC(=O)[C@]12CC[C@](C)(C(=O)O1)C2(C)C)[C@@H]3OC(=O)[C@]12CC[C@](C)(C(=O)O1)C2(C)C
4. Cc1cc(=O)oc2c3c(ccc12)S(=O)(=O)[C@@H](C)C(OC(=O)C12CCC(C)(C(=O)O1)C2(C)C)C3OC(=O)C12CCC(C)(C(=O)O1)C2(C)C (stereo partly specified)

Output:
1. 17.8
2. 31.1
3. 40.6
4. 11.1

Task: Bench note: what selectivity ratio did Cc1cc(=O)oc2c3c(ccc12)OC(C)(C)[C@H](OC(=O)[C@]12CC[C@](C)(C(=O)O1)C2(C)C)[C@@H]3OC(=O)[C@]12CC[C@](C)(C(=O)O1)C2(C)C show?
Output: 301

* * *

System: Human immunodeficiency virus 1
test: Antiviral activity against HIV1 IIIB infected in human H9 cells after 6 days by p24 antigen capture assay
recorded-conditions: Human immunodeficiency virus 1, H9, 144 h
pEC50: −log10 of the molar value.
// label = criterion met if pEC50 is not less than 5, otherwise criterion not met

Task: Confirm if pEC50 reported for the compound Cc1cc(=O)oc2c3c(ccc12)[S+]([O-])[C@H](C)[C@H](OC(=O)[C@]12CC[C@](C)(C(=O)O1)C2(C)C)[C@@H]3OC(=O)[C@]12CC[C@](C)(C(=O)O1)C2(C)C (stereo not given in full) is 5 or above.
Output: criterion not met

Task: Confirm if pEC50 reported for the compound Cc1cc(=O)oc2c3c(ccc12)OC(C)(C)[C@H](OC(=O)[C@]12CC[C@](C)(C(=O)O1)C2(C)C)[C@@H]3OC(=O)[C@]12CC[C@](C)(C(=O)O1)C2(C)C is 5 or above.
Output: criterion met

Task: Confirm if pEC50 reported for the compound Cc1cc(=O)oc2c3c(ccc12)S[C@@H](C)[C@@H](OC(=O)[C@]12CC[C@](C)(C(=O)O1)C2(C)C)[C@H]3OC(=O)[C@]12CC[C@](C)(C(=O)O1)C2(C)C is 5 or above.
Output: criterion met

Task: Confirm if pEC50 reported for the compound Cc1cc(=O)oc2c3c(ccc12)O[C@@H](C)[C@H](OC(=O)[C@]12CC[C@](C)(C(=O)O1)C2(C)C)[C@@H]3OC(=O)[C@]12CC[C@](C)(C(=O)O1)C2(C)C is 5 or above.
Output: criterion met

***
Task: Confirm if pEC50 reported for the compound Cc1cc(=O)oc2c3c(ccc12)OC[C@H](OC(=O)[C@]12CC[C@](C)(C(=O)O1)C2(C)C)[C@@H]3OC(=O)[C@]12CC[C@](C)(C(=O)O1)C2(C)C is 5 or above.
Output: criterion not met

Task: Confirm if pEC50 reported for the compound Cc1cc(=O)oc2c3c(ccc12)S(=O)(=O)[C@@H](C)C(OC(=O)C12CCC(C)(C(=O)O1)C2(C)C)C3OC(=O)C12CCC(C)(C(=O)O1)C2(C)C (stereo not given in full) is 5 or above.
Output: criterion met

Task: Confirm if pEC50 reported for the compound Cc1cn([C@H]2C[C@H](N=[N+]=[N-])[C@@H](CO)O2)c(=O)[nH]c1=O [ZIDOVUDINE] is 5 or above.
Output: criterion met

Task: Confirm if pEC50 reported for the compound Cc1cc(=O)oc2c3c(ccc12)O[C@H](C)[C@@H](OC(=O)[C@]12CC[C@](C)(C(=O)O1)C2(C)C)[C@H]3OC(=O)[C@]12CC[C@](C)(C(=O)O1)C2(C)C is 5 or above.
Output: criterion met

Task: Confirm if pEC50 reported for the compound Cc1cc(=O)oc2c3c(ccc12)SC[C@H](OC(=O)[C@]12CC[C@](C)(C(=O)O1)C2(C)C)[C@@H]3OC(=O)[C@]12CC[C@](C)(C(=O)O1)C2(C)C is 5 or above.
Output: criterion met

Task: Confirm if pEC50 reported for the compound Cc1cc(=O)oc2c3c(ccc12)S[C@H](C)[C@H](OC(=O)[C@]12CC[C@](C)(C(=O)O1)C2(C)C)[C@@H]3OC(=O)[C@]12CC[C@](C)(C(=O)O1)C2(C)C is 5 or above.
Output: criterion met
